# Test system: vemurafenib sensitive and resistant A375 melanoma cells
# METHOD NOTES: in vitro anti-tumor efficacy in A375 melanoma cells
# Type: cell-based
# ASSAY CONTEXT: Homo sapiens, A-375
VALUE TYPE: IC50 (nM)
Give your result in nM as a bare value.

Inquiry: Consider the compound CCCC(NC(=O)/C(C#N)=C/c1nc(Cl)ccc1Cl)c1ccc(OCCN2CCOCC2)cc1 (stereo not shown) [Compound G9] . State its measured IC50.
Reply text: 1000

----------
# METHOD NOTES: plasma level in mice after IV, PO or IP administration (LC/MS)
# Format: in vivo, Balb/c mice
# ASSAY CONTEXT: Balb/c, mouse, plasma; mice, IV or PO study of Table 2
VALUE TYPE: half-life

Inquiry: Give a short answer stating reported half-life for CCCC(NC(=O)/C(C#N)=C/c1nc(Cl)ccc1Cl)c1ccc(OCCN2CCOCC2)cc1 (stereo not shown) .
Reply text: 1.5 to 2 h

----------
# SYSTEM TESTED: catalytic domain of Usp9x (Usp9xCD) (Homo sapiens)
# Construct: DNA corresponding to amino acids 1553-1960 of human Usp9x; His6-Smt3 (SUMO) fusion tag, ULP1-cleavable (N, cleaved yes)
# Sequence (Q93008 1553-1960): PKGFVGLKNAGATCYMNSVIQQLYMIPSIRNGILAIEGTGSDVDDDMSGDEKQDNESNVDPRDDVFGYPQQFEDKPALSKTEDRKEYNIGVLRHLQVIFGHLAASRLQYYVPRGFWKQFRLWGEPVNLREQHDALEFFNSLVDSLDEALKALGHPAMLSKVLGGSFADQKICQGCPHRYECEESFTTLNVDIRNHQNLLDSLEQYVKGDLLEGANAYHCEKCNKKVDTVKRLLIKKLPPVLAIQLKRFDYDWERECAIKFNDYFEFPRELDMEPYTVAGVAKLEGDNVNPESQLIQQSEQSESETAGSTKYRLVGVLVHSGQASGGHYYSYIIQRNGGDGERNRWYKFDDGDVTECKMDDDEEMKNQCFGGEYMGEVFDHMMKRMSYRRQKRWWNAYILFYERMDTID
# METHOD NOTES: Usp9xCD Ub-AMC enzyme assay
# ASSAY CONTEXT: 300 nM Usp9xCD, 30 min at 37° C. with inhibitor, 1.5 μM Ub-AMC
Listed here are molecules together with their documented pIC50.
# pIC50 is unitless: minus log10 of the molar concentration; print number only

CCC[C@H](NC(=O)/C(C#N)=C/c1cccc(Br)n1)c1ccccc1 [WP1130, reference compound]: 5.32

Attention now shifts to the item below.
Inquiry: Return value of pIC50 for input CCCC(NC(=O)/C(C#N)=C/c1nc(Cl)ccc1Cl)c1ccc(OCCN2CCOCC2)cc1 (centres unmarked) [drawing 26] , no commentary.
Reply text: 5.80

----------
# METHOD NOTES: plasma level in mice after IV, PO or IP administration (LC/MS)
# Format: in vivo, Balb/c mice
# ASSAY CONTEXT: Balb/c, mouse, plasma, oral, 30 mg/kg, PO1 30 mg/kg, 4 hours
VALUE TYPE: concentration at 4 h (ng/mL)
Respond with the bare value in ng/mL.

Inquiry: Please report concentration at 4 h for the following compound: CCCC(NC(=O)/C(C#N)=C/c1nc(Cl)ccc1Cl)c1ccc(OCCN2CCOCC2)cc1 (stereo not shown)
Reply text: 44.5

----------
# METHOD NOTES: plasma level in mice after IV, PO or IP administration (LC/MS)
# Assay type: in vivo, Balb/c mice
# ASSAY CONTEXT: Balb/c, mouse, plasma, intravenous, 10 mg/kg, IV2 10 mg/kg, 7 hours
VALUE TYPE: concentration at 7 h
# do not omit the unit; it follows the number

Inquiry: Consider the molecule CCCC(NC(=O)/C(C#N)=C/c1nc(Cl)ccc1Cl)c1ccc(OCCN2CCOCC2)cc1 (stereo not shown) and give its recorded concentration at 7 h.
Reply text: 208 ng/mL

----------
# METHOD NOTES: plasma level in mice after IV, PO or IP administration (LC/MS)
# Assay type: in vivo, Balb/c mice
# ASSAY CONTEXT: Balb/c, mouse, plasma, intravenous, 10 mg/kg, IV1 10 mg/kg, 7 hours
VALUE TYPE: concentration at 7 h (ng/mL)
// units = ng/mL; emit number, no label

Inquiry: Identify measured concentration at 7 h associated with CCCC(NC(=O)/C(C#N)=C/c1nc(Cl)ccc1Cl)c1ccc(OCCN2CCOCC2)cc1 (stereo not shown)
Reply text: 38.6

----------
# METHOD NOTES: plasma level in mice after IV, PO or IP administration (LC/MS)
# Assay type: in vivo, Balb/c mice
# ASSAY CONTEXT: Balb/c, mouse, plasma, intravenous, 10 mg/kg, IV1 10 mg/kg, 4 hours
VALUE TYPE: concentration at 4 h (ng/mL)
The reply should be a number in ng/mL, with the unit left off.

Inquiry: Fill in concentration at 4 h for record CCCC(NC(=O)/C(C#N)=C/c1nc(Cl)ccc1Cl)c1ccc(OCCN2CCOCC2)cc1 (stereo not shown)
Reply text: 126

----------
# METHOD NOTES: plasma level in mice after IV, PO or IP administration (LC/MS)
# Format: in vivo, Balb/c mice
# ASSAY CONTEXT: Balb/c, mouse, plasma, oral, 30 mg/kg, PO1 30 mg/kg, 7 hours
VALUE TYPE: concentration at 7 h (ng/mL)
Field: numeric (ng/mL). Do not append units.

Inquiry: # return recorded concentration at 7 h for entry CCCC(NC(=O)/C(C#N)=C/c1nc(Cl)ccc1Cl)c1ccc(OCCN2CCOCC2)cc1 (stereo not shown) [Compound G9]
Reply text: 37.6

----------
# METHOD NOTES: plasma level in mice after IV, PO or IP administration (LC/MS)
# Type: in vivo, Balb/c mice
# ASSAY CONTEXT: Balb/c, mouse, plasma; mice, IP injection
VALUE TYPE: half-life

Inquiry: Report half-life, nothing else, for this molecule: CCCC(NC(=O)/C(C#N)=C/c1nc(Cl)ccc1Cl)c1ccc(OCCN2CCOCC2)cc1 (stereo not shown)
Reply text: 30 to 60 min

----------
# METHOD NOTES: plasma level in mice after IV, PO or IP administration (LC/MS)
# Assay type: in vivo, Balb/c mice
# ASSAY CONTEXT: Balb/c, mouse, plasma, oral, 30 mg/kg, PO2 30 mg/kg, 7 hours
# Method: To determine whether G9 or 067 had anti-tumor activity in animals, we first assessed their properties in mice when introduced intravenously (IV) or by oral gavage (PO). G9 or 067 was administered once to two mice per group at the indicated dosage level and route (IV or PO) and plasma was collected at the time point indicated after administration. Compound concentration in the plasma was measured by high performance liquid chromatography coupled with mass spectroscopy detection (LC/MS). […]
VALUE TYPE: concentration at 7 h (ng/mL)
Form entry: value (ng/mL) — number only.

Inquiry: Please report the measured concentration at 7 h for CCCC(NC(=O)/C(C#N)=C/c1nc(Cl)ccc1Cl)c1ccc(OCCN2CCOCC2)cc1 (stereo not shown)
Reply text: 16.1

----------
# METHOD NOTES: plasma level in mice after IV, PO or IP administration (LC/MS)
# Format: in vivo, Balb/c mice
# ASSAY CONTEXT: Balb/c, mouse, plasma, iv, 10 mg/kg, IV1 10 mg/kg
VALUE TYPE: AUC(0-t) (ng·h/mL)
Give the value, in units of ng·h/mL, as a plain number.

Inquiry: Provide measured AUC(0-t) value, entry: CCCC(NC(=O)/C(C#N)=C/c1nc(Cl)ccc1Cl)c1ccc(OCCN2CCOCC2)cc1 (stereo not shown)
Reply text: 3730

----------
# METHOD NOTES: plasma level in mice after IV, PO or IP administration (LC/MS)
# Type: in vivo, Balb/c mice
# ASSAY CONTEXT: Balb/c, mouse, plasma, intravenous, 10 mg/kg, IV2 10 mg/kg, 2 hours
VALUE TYPE: concentration at 2 h (µg/mL)
Write the number in µg/mL without appending the unit.

Inquiry: Fill in reported concentration at 2 h for this entry: CCCC(NC(=O)/C(C#N)=C/c1nc(Cl)ccc1Cl)c1ccc(OCCN2CCOCC2)cc1 (stereo not shown) [Compound G9]
Reply text: 0.52

----------
# METHOD NOTES: plasma level in mice after IV, PO or IP administration (LC/MS)
# Assay type: in vivo, Balb/c mice
# ASSAY CONTEXT: Balb/c, mouse, plasma, intravenous, 10 mg/kg, IV1 10 mg/kg, 0.5 hours
VALUE TYPE: concentration at 0.5 h (ng/mL)
Just the number in ng/mL, nothing appended.

Inquiry: Recall and state the measured concentration at 0.5 h for CCCC(NC(=O)/C(C#N)=C/c1nc(Cl)ccc1Cl)c1ccc(OCCN2CCOCC2)cc1 (stereo not shown) .
Reply text: 1880

----------
# METHOD NOTES: plasma level in mice after IV, PO or IP administration (LC/MS)
# Assay type: in vivo, Balb/c mice
# ASSAY CONTEXT: Balb/c, mouse, plasma, intravenous, 10 mg/kg, IV1 10 mg/kg, 2 hours
VALUE TYPE: concentration at 2 h (ng/mL)
Kindly answer with a numeric value in ng/mL, unit omitted.

Inquiry: Please give measured concentration at 2 h of the following entry: CCCC(NC(=O)/C(C#N)=C/c1nc(Cl)ccc1Cl)c1ccc(OCCN2CCOCC2)cc1 (stereo not shown) [Compound G9]
Reply text: 395

----------
# METHOD NOTES: plasma level in mice after IV, PO or IP administration (LC/MS)
# Format: in vivo, Balb/c mice
# ASSAY CONTEXT: Balb/c, mouse, plasma, oral, 30 mg/kg, PO1 30 mg/kg, 2 hours
VALUE TYPE: concentration at 2 h (ng/mL)
Numbers only; they are read as ng/mL.

Inquiry: Supply recorded concentration at 2 h for CCCC(NC(=O)/C(C#N)=C/c1nc(Cl)ccc1Cl)c1ccc(OCCN2CCOCC2)cc1 (stereo not shown) here.
Reply text: 35.8
